The following compounds are shown together with reported inhibition values.
# assay.name: inhibitors of HIV fusion peptide binding, primary screen, biochemical, uHTS, fluorescence dequenching (AID 1986)
# experimental.conditions: cell-free peptide binding, 30 min, at 20 µM, stronger effect = higher value
The campaign covered roughly 290,000 compounds. About 890 (0.31%) were called active. What follows is part of a selection rich in actives, with near analogues and random picks from the rest.
Numeric answer only, unit % assumed.

Item COc1ccc(C(=O)Nc2cccc(/C=C(\CCC(=O)O)c3nc4ccccc4s3)c2)cc1 has what recorded inhibition? 59.2

Item Cc1ccc(/C=C(\CCC(=O)O)c2nc3ccccc3s2)cc1[N+](=O)[O-] has what recorded inhibition? 27.3

Item N#Cc1ccc2ccn(CC(=O)NCc3ccccc3)c2c1 has what recorded inhibition? -1.6

Item CCCCCCCNC(=O)C1(CC2CC(c3ccc(Cl)cc3)=NO2)CCN(C(=O)OC(C)(C)C)CC1 (stereo not given) has what recorded inhibition? 0.6

Item CN(c1ccccc1)c1ccc(/C=C(\CCC(=O)O)c2nc3ccccc3s2)cc1[N+](=O)[O-] has what recorded inhibition? 65
